Target System: JAK3 enzyme (Homo sapiens (Human), UniProt P52333)
Sequence (P52333 whole entry, species assumed): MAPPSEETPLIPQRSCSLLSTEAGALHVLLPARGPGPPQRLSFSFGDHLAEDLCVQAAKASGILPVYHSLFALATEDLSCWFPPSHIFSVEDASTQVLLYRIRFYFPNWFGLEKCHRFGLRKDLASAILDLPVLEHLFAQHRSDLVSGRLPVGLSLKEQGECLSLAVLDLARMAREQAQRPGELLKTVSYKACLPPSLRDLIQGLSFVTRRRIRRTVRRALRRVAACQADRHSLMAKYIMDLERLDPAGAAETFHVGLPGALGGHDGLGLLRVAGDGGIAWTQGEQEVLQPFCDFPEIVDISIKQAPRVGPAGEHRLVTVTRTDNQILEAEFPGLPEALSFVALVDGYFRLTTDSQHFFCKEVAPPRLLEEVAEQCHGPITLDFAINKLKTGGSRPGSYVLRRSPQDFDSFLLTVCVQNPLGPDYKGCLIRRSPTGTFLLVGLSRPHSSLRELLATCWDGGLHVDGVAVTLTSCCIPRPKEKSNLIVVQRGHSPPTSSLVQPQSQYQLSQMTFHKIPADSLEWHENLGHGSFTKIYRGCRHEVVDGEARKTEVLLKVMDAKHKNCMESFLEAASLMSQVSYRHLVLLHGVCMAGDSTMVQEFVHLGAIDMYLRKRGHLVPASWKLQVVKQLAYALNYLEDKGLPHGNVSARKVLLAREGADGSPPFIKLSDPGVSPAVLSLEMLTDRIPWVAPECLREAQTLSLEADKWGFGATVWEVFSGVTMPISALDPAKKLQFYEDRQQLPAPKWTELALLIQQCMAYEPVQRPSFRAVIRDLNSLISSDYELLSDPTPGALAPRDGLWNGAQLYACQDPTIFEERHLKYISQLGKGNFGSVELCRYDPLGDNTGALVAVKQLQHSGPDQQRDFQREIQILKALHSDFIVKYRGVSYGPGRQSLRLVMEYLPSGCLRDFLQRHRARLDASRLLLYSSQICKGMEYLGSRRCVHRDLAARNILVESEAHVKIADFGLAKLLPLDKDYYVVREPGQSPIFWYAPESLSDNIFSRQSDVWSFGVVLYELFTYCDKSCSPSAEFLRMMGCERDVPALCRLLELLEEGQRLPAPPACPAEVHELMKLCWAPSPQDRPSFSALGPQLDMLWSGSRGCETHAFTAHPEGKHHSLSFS
Procedure Details: JAK Caliper Enzyme Assay at 4 μM or 1 mM ATP
Format: biochemical
Setup Conditions: read-out: JAK3 (4 μM ATP) IC50; 4 μM ATP
Readout Type: IC50 (nM)
Numeric only. Scale: nM

## Input Provide the documented IC50 with JAK3 enzyme (Homo sapiens (Human), UniProt P52333) as the system for C=CC(=O)N1CCC(Nc2cnc3[nH]cc(C(=O)NC4CCC(F)(F)C4)c3n2)CC1 (centres unmarked)
## Output 0.2

## Input Follow-up item: C=CC(=O)N1[C@@H]2CC[C@H]1CN(c1cnc3[nH]cc(C(=O)NC(C)C)c3n1)C2
## Output 0.6

## Input Follow-up item: C=CC(=O)N1CCN(c2cnc3[nH]cc(C(=O)NC(C)C)c3n2)CC1(C)C
## Output 0.6

## Input Follow-up item: C=CC(=O)N1CCC(Nc2cnc3[nH]cc(-c4cccc(C(=O)NC)c4)c3n2)CC1
## Output 0.5

## Input Follow-up item: C=CC(=O)N1CC2(C1)CN(c1cnc3[nH]cc(C(=O)NC(C)C)c3n1)C2C (centres unmarked)
## Output 29.4

## Input Follow-up item: CN(C)C/C=C/C(=O)N1CCC[C@@H](Nc2ncnc3[nH]cc(CCC#N)c23)C1
## Output 1470

## Input Follow-up item: C=CC(=O)N1CCC[C@@H](Nc2ncnc3[nH]cc(CC#N)c23)C1
## Output 1

## Input Follow-up item: C=CC(=O)N[C@H]1C[C@@H](Nc2cnc3[nH]cc(C(=O)NC(C)C)c3n2)C1
## Output 1.5
